Data origin, for the record: paper PMC12394552

Test system: PC3 prostate malignancy
assay-method-text: SRB antiproliferative assay
Format: cell-based, human
particulars: Homo sapiens, 72 h, read-out: Cytotoxicity (as of %Control) IC50 value, PC3 prostate malignancy
pIC50: −log10 of the molar value.
endpoint-label: pIC50

## Input Name the recorded pIC50 of the item `COc1ccc(/C=N/NC(=S)N/N=C/c2ccc(OC)cc2)cc1` in your answer.
## Output < 3.70
